Tested on: Streptococcus dysgalactiae
assayMethodText: Antibacterial activity against erythromycin-resistant Streptococcus dysgalactiae A1 by broth microdilution method
Type: functional
measuredAttribute: MIC (µg/mL)
Expressed in µg/mL, but write only the number.

These solved cases illustrate the format of a correct answer.
CC[C@H]1OC(=O)[C@H](C)C(=O)[C@H](C)[C@@H](O[C@@H]2O[C@H](C)C[C@H](N(C)C)[C@H]2O)[C@](C)(OC)C[C@@H](C)/C(=N\OC/C=C/c2ccc(-c3cccs3)cc2)[C@H](C)[C@H]2OC(=O)O[C@@]21C : 16
CC[C@H]1OC(=O)[C@H](C)[C@@H](O[C@H]2C[C@@](C)(OC)[C@@H](O)[C@H](C)O2)[C@H](C)[C@@H](O[C@@H]2O[C@H](C)C[C@H](N(C)C)[C@H]2O)[C@](C)(OC)C[C@@H](C)C(=O)[C@H](C)[C@@H](O)[C@]1(C)O : 16
CC[C@H]1OC(=O)[C@H](C)C(=O)[C@H](C)[C@@H](O[C@@H]2O[C@H](C)C[C@H](N(C)C)[C@H]2O)[C@](C)(OC)C[C@@H](C)C(=O)[C@H](C)[C@H]2N(CCCCn3cnc(-c4cccnc4)c3)C(=O)O[C@]12C : 2

Attention now shifts to the item below.
QUERY: Record CC[C@H]1OC(=O)[C@H](C)[C@@H](OC(=O)Cc2cccnc2)[C@H](C)[C@@H](O[C@@H]2O[C@H](C)C[C@H](N(C)C)[C@H]2O)[C@](C)(OC)C[C@@H](C)/C(=N\OC/C=C/c2cnc3ccccc3c2)[C@H](C)[C@H]2OC(=O)O[C@@]21C : what is its MIC with Streptococcus dysgalactiae?
RESULT: 16

====

Tested on: Streptococcus pneumoniae
assayMethodText: Antibacterial activity against MLS-resistant (constitutive), penicillin-resistant Streptococcus pneumoniae PU11 by broth microdilution method
Assay type: functional
Overview of recorded MIC for various compounds
Write the value in µg/mL as a bare number.

Guide cases for MIC, answers given:
CC[C@H]1OC(=O)[C@H](C)[C@@H](OC(=O)Cc2cccnc2)[C@H](C)[C@@H](O[C@@H]2O[C@H](C)C[C@H](N(C)C)[C@H]2O)[C@](C)(OC)C[C@@H](C)/C(=N\OCC#Cc2cncc3ccccc23)[C@H](C)[C@H]2OC(=O)O[C@@]21C : 64
CC[C@H]1OC(=O)[C@H](C)C(=O)[C@H](C)[C@@H](O[C@@H]2O[C@H](C)C[C@H](N(C)C)[C@H]2O)[C@](C)(OC)C[C@@H](C)/C(=N\OC/C=C/c2ccc(-c3ccccn3)s2)[C@H](C)[C@H]2OC(=O)O[C@@]21C : 64
CC[C@H]1OC(=O)[C@H](C)C(=O)[C@H](C)[C@@H](O[C@@H]2O[C@H](C)C[C@H](N(C)C)[C@H]2O)[C@](C)(OC)C[C@@H](C)/C(=N\OC/C=C/c2cnc3ccccc3c2)[C@H](C)[C@H]2OC(=O)O[C@@]21C : 64

QUERY: Please look up its MIC: CC[C@H]1OC(=O)[C@H](C)[C@@H](OC(=O)Cc2ccccn2)[C@H](C)[C@@H](O[C@@H]2O[C@H](C)C[C@H](N(C)C)[C@H]2O)[C@](C)(OC)C[C@@H](C)/C(=N\OCC#Cc2cncc3ccccc23)[C@H](C)[C@H]2OC(=O)O[C@@]21C
RESULT: 32

QUERY: I would be grateful if you could share the reported MIC for CC[C@H]1OC(=O)[C@H](C)[C@@H](OC(=O)Cc2cccnc2)[C@H](C)[C@@H](O[C@@H]2O[C@H](C)C[C@H](N(C)C)[C@H]2O)[C@](C)(OC)C[C@@H](C)/C(=N\OC/C=C/c2cnc3ccccc3c2)[C@H](C)[C@H]2OC(=O)O[C@@]21C .
RESULT: 128

QUERY: What measured MIC goes with CC[C@H]1OC(=O)[C@H](C)[C@@H](OC(=O)Cc2ccccn2)[C@H](C)[C@@H](O[C@@H]2O[C@H](C)C[C@H](N(C)C)[C@H]2O)[C@](C)(OC)C[C@@H](C)/C(=N\OC/C=C/c2cnc3ccccc3c2)[C@H](C)[C@H]2OC(=O)O[C@@]21C ?
RESULT: 64

QUERY: Entry CC[C@H]1OC(=O)[C@H](C)C(=O)[C@H](C)[C@@H](O[C@@H]2O[C@H](C)C[C@H](N(C)C)[C@H]2O)[C@](C)(OC)C[C@@H](C)/C(=N\OC/C=C/c2ccc(C(=O)c3ccccc3)s2)[C@H](C)[C@H]2OC(=O)O[C@@]21C has what MIC?
RESULT: 64

QUERY: Name the recorded MIC for CC[C@H]1OC(=O)[C@H](C)[C@@H](O)[C@H](C)[C@@H](O[C@@H]2O[C@H](C)C[C@H](N(C)C)[C@H]2O)[C@](C)(OC)C[C@@H](C)/C(=N\OC/C=C/c2cnc3ccccc3c2)[C@H](C)[C@H]2OC(=O)O[C@@]21C .
RESULT: 64

QUERY: Report MIC for CC[C@H]1OC(=O)[C@H](C)[C@@H](O)[C@H](C)[C@@H](O[C@@H]2O[C@H](C)C[C@H](N(C)C)[C@H]2O)[C@](C)(OC)C[C@@H](C)/C(=N\OCCCc2cncc3ccccc23)[C@H](C)[C@H]2OC(=O)O[C@@]21C please.
RESULT: 32

====

Tested on: Streptococcus pneumoniae
assayMethodText: Antibacterial activity against MLS-resistant (constitutive), penicillin-resistant Streptococcus pneumoniae PU11 by broth microdilution method
Type: functional
measuredAttribute: MIC

CC[C@H]1OC(=O)[C@H](C)C(=O)[C@H](C)[C@@H](O[C@@H]2O[C@H](C)C[C@H](N(C)C)[C@H]2O)[C@](C)(OC)C[C@@H](C)/C(=N\OC/C=C/c2ccc(-c3cccs3)cc2)[C@H](C)[C@H]2OC(=O)O[C@@]21C : 64 µg/mL
CC[C@H]1OC(=O)[C@H](C)[C@@H](O/C=C\Cc2cncnc2)[C@H](C)[C@@H](O[C@@H]2O[C@H](C)C[C@H](N(C)C)[C@H]2O)[C@](C)(OC)C[C@@H](C)/C(=N\OC/C=C/c2cnc3ccccc3c2)[C@H](C)[C@H]2OC(=O)O[C@@]21C : 128 µg/mL
CC[C@H]1OC(=O)[C@H](C)C(=O)[C@H](C)[C@@H](O[C@@H]2O[C@H](C)C[C@H](N(C)C)[C@H]2O)[C@](C)(OC)C[C@@H](C)C(=O)[C@H](C)[C@H]2N(CCCCn3cnc(-c4cccnc4)c3)C(=O)O[C@]12C : 4 µg/mL

Field: next compound
QUERY: Dear colleague, I am looking for the recorded MIC of the following compound: CC[C@H]1OC(=O)[C@H](C)[C@@H](O[C@H]2C[C@@](C)(OC)[C@@H](O)[C@H](C)O2)[C@H](C)[C@@H](O[C@@H]2O[C@H](C)C[C@H](N(C)C)[C@H]2O)[C@](C)(OC)C[C@@H](C)C(=O)[C@H](C)[C@@H](O)[C@]1(C)O
RESULT: > 256 µg/mL

====

Each record here notes measured MIC.
System: Staphylococcus aureus
assayMethodText: Antibacterial activity against methicillin-resistant, […], MLS-resistant (constitutive) Staphylococcus aureus PU 19 by broth microdilution method
Format: functional

CC[C@H]1OC(=O)[C@H](C)[C@@H](OC(=O)Cc2cccnc2)[C@H](C)[C@@H](O[C@@H]2O[C@H](C)C[C@H](N(C)C)[C@H]2O)[C@](C)(OC)C[C@@H](C)/C(=N\OCC#Cc2cncc3ccccc23)[C@H](C)[C@H]2OC(=O)O[C@@]21C : > 256 µg/mL

QUERY: Hi! What's the reported MIC for CC[C@H]1OC(=O)[C@H](C)[C@@H](O[C@H]2C[C@@](C)(OC)[C@@H](O)[C@H](C)O2)[C@H](C)[C@@H](O[C@@H]2O[C@H](C)C[C@H](N(C)C)[C@H]2O)[C@](C)(OC)C[C@@H](C)C(=O)[C@H](C)[C@@H](O)[C@]1(C)O on Staphylococcus aureus?
RESULT: > 256 µg/mL

QUERY: // map CC[C@H]1OC(=O)[C@H](C)C(=O)[C@H](C)[C@@H](O[C@@H]2O[C@H](C)C[C@H](N(C)C)[C@H]2O)[C@](C)(OC)C[C@@H](C)C(=O)[C@H](C)[C@H]2N(CCCCn3cnc(-c4cccnc4)c3)C(=O)O[C@]12C to recorded MIC (system: Staphylococcus aureus)
RESULT: > 256 µg/mL

QUERY: Missing value: MIC, Staphylococcus aureus, entry CC[C@H]1OC(=O)[C@H](C)[C@@H](OC(=O)Cc2ccccn2)[C@H](C)[C@@H](O[C@@H]2O[C@H](C)C[C@H](N(C)C)[C@H]2O)[C@](C)(OC)C[C@@H](C)/C(=N\OC/C=C/c2cnc3ccccc3c2)[C@H](C)[C@H]2OC(=O)O[C@@]21C . Fill in?
RESULT: > 256 µg/mL

QUERY: Hello, I am looking for reported MIC with Staphylococcus aureus for CC[C@H]1OC(=O)[C@H](C)C(=O)[C@H](C)[C@@H](O[C@@H]2O[C@H](C)C[C@H](N(C)C)[C@H]2O)[C@](C)(OC)C[C@@H](C)/C(=N\OC/C=C/c2cnc3ccccc3c2)[C@H](C)[C@H]2OC(=O)O[C@@]21C . Could you help?
RESULT: 64 µg/mL
